Property: pIC50; scope: individual compounds
- Target System: TGF-beta receptor type-1 (Homo sapiens, UniProt P36897, T204D)
- Test: Inhibition of TGFbeta type receptor 1 ALK5 (T204D) expressed in Sf9 cells
In simple prose, pIC50 is minus the logarithm base ten of a concentration in moles per litre.

# count of solved cases: 2
| Smiles Str | pIC50 |
| --- | --- |
| Cc1cccc(-c2nn3c(c2-c2ccnc4ccc(C(=O)NCCN(C)C)cc24)CCC3)n1 | 6.71 |
| ClCCOc1ccc2c(-c3c(-c4ccccn4)nn4c3CCC4)ccnc2c1 | 7.48 |

# context switch: different compound, same pIC50
So what does the record say about pIC50 for O=C(O)c1ccc(Oc2ccc3c(-c4c(-c5ccccn5)nn5c4CCC5)ccnc3c2)cc1 ?
5.32

----------
- Test: Antiproliferative activity against mink Mv1Lu-p3TP-Lux cells by luciferase reporter assay
- Type: functional, cell-based, Neovison vison
- Condition Info: Neogale vison
pIC50: −log10 of the molar value.
Use T when the recorded pIC50 is no lower than 7; use F when it is lower.

| Smiles Str | Group |
| --- | --- |
| COC(=O)c1ccc2nccc(-c3c(-c4cccc(C)n4)nn4c3CCC4)c2c1 | F |
| CN1CCN(CCOc2ccc3c(-c4c(-c5ccccn5)nn5c4CCC5)ccnc3c2)CC1 | T |
| c1ccc(-c2nn3c(c2-c2cc(N4CCCC4)nc4ccccc24)CCC3)nc1 | F |
| Cc1cccc(-c2nn3c(c2-c2ccnc4ccc(OC(F)(F)F)cc24)CCC3)n1 | F |
| COc1cc(OC)c2nccc(-c3c(-c4cccc(C)n4)nn4c3CCC4)c2c1 | F |

Kindly determine if pIC50 recorded for CN1CCN(CCCOc2ccc3c(-c4c(-c5ccccn5)nn5c4CCC5)ccnc3c2)CC1 is above or exactly 7.
T

Try Cc1cccc(-c2nn3c(c2-c2ccnc4ccc(C(=O)NCCN(C)C)cc24)CCC3)n1 next.
F

Try Cc1cccc(-c2nn3c(c2-c2ccnc4ccc(Br)cc24)CCC3)n1 next.
T

Try CN1CCN(C(=O)COc2ccc3c(-c4c(-c5ccccn5)nn5c4CCC5)ccnc3c2)CC1 next.
F

----------
- Test: Metabolic stability in rat microsomes; also: time not given here
- Type: ADME, Microsome
Reported Metric: Stability

# count of solved cases: 6
| Compound | Reported Result |
| --- | --- |
| c1ccc(-c2nn3c(c2-c2ccnc4cc(OCC5CCCO5)ccc24)CCC3)nc1 (configuration not stated) | 97% |
| CCN(C)CCOc1ccc2c(-c3c(-c4ccccn4)nn4c3CCC4)ccnc2c1 | 57% |
| ClCCOc1ccc2c(-c3c(-c4ccccn4)nn4c3CCC4)ccnc2c1 | 99% |
| c1ccc(-c2n[nH]cc2-c2ccnc3ccccc23)nc1 | 98% |
| CN1CCN(CCCOc2ccc3c(-c4c(-c5ccccn5)nn5c4CCC5)ccnc3c2)CC1 | 46% |
| CN(C)CCOc1ccc2c(-c3c(-c4ccccn4)nn4c3CCC4)ccnc2c1 | 60% |

# context switch: different compound, same Stability
So what does the record say about Stability for c1ccc(-c2nn3c(c2-c2ccnc4cc(OCCN5CCOCC5)ccc24)CCC3)nc1 ?
58%

----------
- Test: AUC in rat at 10 mg/kg, po
- Assay type: ADME, organism-based
- Set-up: dose 10 mg/kg, route oral
- Condition Info: plasma
Reported Metric: AUC
Note: a bare number is incomplete; add the unit.

So what does the record say about AUC for CN(C)CC(=O)Nc1ccc2c(-c3c(-c4ccccn4)nn4c3CCC4)ccnc2c1 ?
398 ng·h/mL

The values you see were collected from ChEMBL document CHEMBL1144852.
